system: U251 CNS; experiment: NCI-60 one-dose screen, 48 h; conditions: 10 µM unless noted
Compounds without any hit were thinned out: in the full panel of roughly 83,000, 20% have a hit. The source made the active and inactive calls. Rule for the calls: active = growth percent below 10; inactive = the rest.
Classes used: TRUE (active), FALSE (inactive)

>  <MOLECULE>
Cc1cc2nc3c4cc(Cl)ccc4n(CC(=S)NCCN(C)C)c3nc2cc1C

>  <QUALITATIVE_LABEL>
TRUE

$$$$
>  <MOLECULE>
COc1ccc([C@@H]2c3[nH]c4ccccc4c3CC3C(=O)N(C4CCN(Cc5c(F)cccc5F)CC4)CC(=O)N32)c(OC)c1 (stereo partly specified)

>  <QUALITATIVE_LABEL>
FALSE

$$$$
>  <MOLECULE>
O=C(CSc1nc2sc3c(c2c(=O)n1-c1ccc(Cl)cc1)CCCC3)NNC(=O)Nc1ccc(Cl)c(C(F)(F)F)c1

>  <QUALITATIVE_LABEL>
TRUE

$$$$
>  <MOLECULE>
COc1ccc(NC(=O)c2sc3nc(-c4cnccn4)cc(-c4cccs4)c3c2N)cc1

>  <QUALITATIVE_LABEL>
FALSE

$$$$
>  <MOLECULE>
Clc1ccc2oc3c(NCCCN4CCOCC4)c4ccccc4nc3c2c1

>  <QUALITATIVE_LABEL>
FALSE

$$$$
>  <MOLECULE>
COc1ccc(/C=N/Nc2ccnc3cc(Cl)ccc23)cc1Cl

>  <QUALITATIVE_LABEL>
TRUE

$$$$
>  <MOLECULE>
Cc1cc(C(NC(=O)CCCCCNc2cccc3c2C(=O)N(C2CCC(=O)NC2=O)C3=O)c2cccnc2)c(O)c2ncccc12 (stereo unspecified)

>  <QUALITATIVE_LABEL>
FALSE

$$$$
>  <MOLECULE>
COC(=O)C(Cc1ccccc1)NS(=O)(=O)/N=C1\NC(=O)NC1=C(Cl)Cl (stereo unspecified)

>  <QUALITATIVE_LABEL>
FALSE

$$$$
>  <MOLECULE>
COc1cc2nc(-c3ccc(Cl)cc3)cc(OCCCNCC3CCCO3)c2cc1OC (stereo unspecified)

>  <QUALITATIVE_LABEL>
FALSE

$$$$
>  <MOLECULE>
CCCCCCNC(=O)Oc1ccc(/C(=C(/C)c2ccccc2)c2ccc(OCCN3CCCCCC3)cc2)cc1

>  <QUALITATIVE_LABEL>
FALSE

$$$$
>  <MOLECULE>
O=c1[nH]c2ccc(Cl)cc2cc1CSc1ccccc1Nc1nccc(-c2ccc(Cl)cc2)n1

>  <QUALITATIVE_LABEL>
FALSE

$$$$
>  <MOLECULE>
C#Cc1nc(C2=C(C)C(OC(C)=O)/C(=N/OC(C)=O)C2)cs1 (stereo unspecified)

>  <QUALITATIVE_LABEL>
TRUE

$$$$
>  <MOLECULE>
C[C@@H]1CN(c2ccc3ncc(C#Cc4cncc(C(=O)Nc5ccc(CN6CCN(C)CC6)c(C(F)(F)F)c5)c4)n3n2)C[C@H](C)O1

>  <QUALITATIVE_LABEL>
TRUE

$$$$
>  <MOLECULE>
CN(C)CCCOc1c2ccc(Cl)cc2nc2c1oc1ccc(Cl)cc12

>  <QUALITATIVE_LABEL>
TRUE

$$$$
>  <MOLECULE>
CCOC(=O)c1c(Nc2ccccc2)nn2c(N)c(C#N)c(-c3ccc(F)cc3)nc12

>  <QUALITATIVE_LABEL>
FALSE

$$$$
>  <MOLECULE>
CN(C)c1ccc(/C=C2\Cc3c(F)ccc(Br)c3C2=O)cc1

>  <QUALITATIVE_LABEL>
FALSE

$$$$

Origin of values: PubChem BioAssay (NCI)
